For each of the molecules below, state its inhibition.
Target: D-3-phosphoglycerate dehydrogenase (Homo sapiens)
Assay: Inhibition of recombinant human C-terminal His-tagged PHGDH (1 to 533 residues) expressed in Escherichia coli assessed as reduction in NADH formation at 100 uM using 3-phosphoglycerate as substrate preincubated measured for 7 mins in presence of NAD+ by spectrophotometric method relative to control
Give bare numbers, in %.

c1ccc(C2CNCCO2)cc1 (configuration not stated) :: 61
Cc1cc(C)nc(NC(=O)c2ccc([N+](=O)[O-])cc2)n1 :: 13
O=C1C=CC(=O)c2ccccc21 :: 95
O=C1C=CC(=O)C=C1 :: 100
O=C(Nc1ccccc1[N+](=O)[O-])c1ccc(Cl)cc1 :: 59
O=C(NC(c1ccccc1)c1ccccc1)c1ccc([N+](=O)[O-])cc1 :: 54

// query Which inhibition value belongs to Nc1nc2c(s1)CCCC2 ?
// result 46
